- Assayed system: UniProtKB Q99572
- Sequence (Q99572 whole entry): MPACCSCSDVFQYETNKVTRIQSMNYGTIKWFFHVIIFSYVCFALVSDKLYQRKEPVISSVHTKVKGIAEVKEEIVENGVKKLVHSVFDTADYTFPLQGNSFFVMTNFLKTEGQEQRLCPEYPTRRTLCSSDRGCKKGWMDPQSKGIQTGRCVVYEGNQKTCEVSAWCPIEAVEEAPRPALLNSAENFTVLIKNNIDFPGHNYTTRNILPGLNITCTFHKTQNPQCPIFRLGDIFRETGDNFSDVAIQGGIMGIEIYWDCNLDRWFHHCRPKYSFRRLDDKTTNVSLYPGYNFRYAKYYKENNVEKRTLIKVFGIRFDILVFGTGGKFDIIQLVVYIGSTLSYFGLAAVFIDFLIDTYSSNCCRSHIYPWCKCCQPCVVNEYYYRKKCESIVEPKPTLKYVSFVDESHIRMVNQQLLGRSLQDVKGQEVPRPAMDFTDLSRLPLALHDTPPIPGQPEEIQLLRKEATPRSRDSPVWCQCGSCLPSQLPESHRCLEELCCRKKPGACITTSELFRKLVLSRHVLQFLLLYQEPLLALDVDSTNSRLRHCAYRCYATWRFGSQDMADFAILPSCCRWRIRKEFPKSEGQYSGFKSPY
- Assay details: P2X7 antagonism in human PBMCs (IL-1β release after LPS + Bz-ATP, ELISA)
- Format: cell-based
- Condition label: human PBMCs, test compound 10 μM
Can you tell me PBMC 10 μM (% control) for the items I'm about to list?
Just the number in % control, nothing appended.

Query: Write down PBMC 10 μM (% control) measured for item Cc1cc(-n2nnc3c2CCN(C(=O)c2cc(C(F)(F)F)ccc2Cl)[C@@H]3C)ncc1F (single isomer, unassigned) [Example 353]
Reply: 107.5

Query: Report measured PBMC 10 μM (% control); entry is C[C@H]1c2nnn(-c3cc(F)ccn3)c2CCN1C(=O)c1cccc(C(F)(F)F)c1Cl (single isomer, unassigned) [Example 149]
Reply: 3.5

Query: Give PBMC 10 μM (% control) for the following molecule: CC1c2ncn(-c3ccc(F)cc3)c2CCN1C(=O)c1cccc(C(F)(F)F)c1F (centres unmarked) [Example 20]
Reply: 8.6

Query: In one line, give reported PBMC 10 μM (% control) of the entry Cc1cc(-n2nnc3c2CCN(C(=O)c2cccc(C(F)(F)F)c2Cl)C3C)ncc1F (centres unmarked) [Example 381] .
Reply: 4.1

Query: Using known records, supply PBMC 10 μM (% control) for C[C@H]1c2nnn(-c3ncccn3)c2CCN1C(=O)c1cccc(C(F)(F)F)c1F (single isomer, unassigned) [Example 270]
Reply: 47.9

Query: Report PBMC 10 μM (% control) for Cc1ccnc(-n2nnc3c2CCN(C(=O)c2ccnc(C(F)(F)F)c2F)C3C)c1 (centres unmarked) [Example 355]
Reply: −2.0

Query: Provide only the value of recorded PBMC 10 μM (% control) for CC1Cc2c(nnn2-c2cc(F)ccn2)CN1C(=O)c1cccc(Cl)c1Cl (centres unmarked) [Example 173]
Reply: 8.8

Query: # return recorded PBMC 10 μM (% control) for entry CC1c2nnn(-c3ncc(F)cn3)c2CCN1C(=O)c1cccc(C(F)(F)F)c1F (centres unmarked) [Example 175]
Reply: 4.5
